molecular target: Luciferin 4-monooxygenase (Photinus pyralis) (UniProt P08659); test: FLuc inhibitory activity for the follow-up compounds in a biochemical assay with 1mM D-luciferin; settings: purified FLuc, luminescence; series mostly up to 57.5 µM
Sequence (P08659 whole entry, looked up): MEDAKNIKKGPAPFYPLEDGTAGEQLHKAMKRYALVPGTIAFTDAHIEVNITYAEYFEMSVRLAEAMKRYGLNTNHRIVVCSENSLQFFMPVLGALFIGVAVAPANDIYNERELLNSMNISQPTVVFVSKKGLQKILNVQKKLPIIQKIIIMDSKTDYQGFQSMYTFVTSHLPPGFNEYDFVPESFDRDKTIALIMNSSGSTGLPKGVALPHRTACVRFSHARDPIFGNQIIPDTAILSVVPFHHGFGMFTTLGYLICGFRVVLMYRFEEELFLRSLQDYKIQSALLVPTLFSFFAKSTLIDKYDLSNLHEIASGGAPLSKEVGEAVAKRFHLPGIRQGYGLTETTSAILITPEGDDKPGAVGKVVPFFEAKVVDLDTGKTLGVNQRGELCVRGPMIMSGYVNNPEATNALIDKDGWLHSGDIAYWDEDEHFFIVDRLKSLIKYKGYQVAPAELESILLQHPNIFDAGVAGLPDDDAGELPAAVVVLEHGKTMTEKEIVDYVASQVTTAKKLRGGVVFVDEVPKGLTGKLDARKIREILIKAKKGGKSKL
Results filed as inconclusive are left out. Calls of active or inactive are those of the source. Calls come from the whole dose curve; as a rule, active = well fitted inhibition curve with a large enough effect; inconclusive = small, poorly fitted or top-dose-only effect; inactive = flat fitted curve, though single readings scatter.
Tick one outcome: class 1 for active, class 0 for inactive

| molecule | assay_system | discrete_label |
| --- | --- | --- |
| COc1ccc2nc(NC(=O)c3nc(S(=O)(=O)Cc4ccc(C)cc4)ncc3Cl)sc2c1 | Luciferin 4-monooxygenase (Photinus pyralis) (UniProt P08659) | class 0 |
| Cc1c(NC(=O)C(C)(C)C)cccc1-c1nc2ccccc2s1 | Luciferin 4-monooxygenase (Photinus pyralis) (UniProt P08659) | class 1 |
| Cc1ccc2nc(-c3ccc(N)cc3)sc2c1 | Luciferin 4-monooxygenase (Photinus pyralis) (UniProt P08659) | class 1 |
| CC(C)c1ccc(C(=O)Nc2ccc(-c3nc4ccccc4s3)c(Cl)c2)cc1 | Luciferin 4-monooxygenase (Photinus pyralis) (UniProt P08659) | class 0 |

Just curious, what result did "Nc1ccc2nc(-c3ccccc3)sc2c1" get here?
class 1

Just curious, what result did "Cc1ccc(C(=O)O/N=C(\N)c2ccccn2)c(Cl)c1" get here?
class 1

Just curious, what result did "Nc1ccccc1-c1nc2ccccc2s1" get here?
class 1

Just curious, what result did "COc1ccc2nc(NC(=O)CCc3ccc(OC)c(OC)c3)sc2c1" get here?
class 0

Just curious, what result did "O=C(Nc1ccc(-c2nc3ccccc3s2)cc1)C1=COCCO1" get here?
class 1

Just curious, what result did "CC(C)(C)NC(=O)c1ccccc1-c1nc2ccccc2s1" get here?
class 0

---

Target: Luciferin 4-monooxygenase (Photinus pyralis)
Experiment: FLuc inhibitory activity for the follow-up compounds in a biochemical assay with 1mM D-luciferin
Conditions: purified FLuc, luminescence; series mostly up to 57.5 µM
Excerpt: NCGC Assay Overview: Firefly (Photinus pyralis) luciferase is one of the most commonly used transcriptional reporters. It is considered one of the more dynamically responsive reporters - that is, responsive to changes in reporter transcription - as it requires no post-translational modifications and is enzymatically active directly after protein synthesis (Wood, 1998). […]
Inconclusive results are not listed. Calls of active or inactive are those of the source. The call rests on the fitted dose curve; in most records, active means well fitted inhibition curve with a large enough effect; inconclusive means small, poorly fitted or top-dose-only effect; inactive means flat fitted curve, though single readings scatter.
attribute_measured: Potency

Field: example entries. Status: answers known.
| smiles_representation | assay_system | Potency |
| --- | --- | --- |
| CC(=O)Oc1ccc(C(=O)Nc2ccccc2C(=O)Nc2cccc(C(=O)O)c2)cc1 | Luciferin 4-monooxygenase (Photinus pyralis) | 16.3 µM (active) |
| O=C(Nc1c(Cl)cc(Cl)cc1-c1nc2ccccc2s1)c1ccc(Br)o1 | Luciferin 4-monooxygenase (Photinus pyralis) | inactive |
| c1ccc2sc(-c3ccc4c(c3)OCO4)nc2c1 | Luciferin 4-monooxygenase (Photinus pyralis) | 1.3 µM (active) |
| O=C(O)c1cccc(NC(=O)c2cccc(S(=O)(=O)N3CCc4ccccc43)c2)c1 | Luciferin 4-monooxygenase (Photinus pyralis) | inactive |
| COc1ccc2nc(NC(=O)Cc3cccs3)sc2c1 | Luciferin 4-monooxygenase (Photinus pyralis) | 13 µM (active) |
| CN=c1scc(-c2ccccc2F)n1/N=C/c1ccc[nH]1 | Luciferin 4-monooxygenase (Photinus pyralis) | 0.0819 µM (active) |

For reference, reported Potency for "CC(C)C(=O)Nc1cccc(C(=O)Nc2ccccc2C(=O)O)c1" stands at 18.3 µM (active)

For reference, reported Potency for "COc1cc(OC)cc(C(=O)Nc2ccc(-c3nc4ccccc4s3)c(C)c2)c1" stands at inactive

For reference, reported Potency for "CCn1c(C)nc2cc(-c3nc4n(n3)Cc3ccccc3-4)ccc21" stands at 0.163 µM (active)

For reference, reported Potency for "C/C(=N\NC(=O)c1ccccc1NC(=O)c1ccc(Cl)cc1)c1ccncc1" stands at 0.0517 µM (active)

For reference, reported Potency for "COc1ccc(-c2nc3ccccc3s2)cc1O" stands at 0.651 µM (active)

For reference, reported Potency for "O=C(O)c1ccc(NC(=O)c2cc(S(=O)(=O)N3CCCCC3)c(Cl)cc2Cl)cc1" stands at inactive

For reference, reported Potency for "CC(C)CC(=O)Nc1cccc(C(=O)Nc2ccccc2C(=O)O)c1" stands at 23.1 µM (active)

For reference, reported Potency for "Cc1ccc(C(=O)Nc2cccc(C(=O)O)c2)cc1S(=O)(=O)N1CCOCC1" stands at 16.3 µM (active)

For reference, reported Potency for "Cc1c(NC(=O)c2cccs2)cccc1-c1nc2ccccc2s1" stands at 14.6 µM (active)

For reference, reported Potency for "COc1ccc2nc(NC(=O)c3ccc(NS(=O)(=O)c4cccs4)cc3)sc2c1" stands at 18.3 µM (active)

For reference, reported Potency for "O=C(O)c1ccc(NC(=O)c2cccc(NC(=O)c3cccs3)c2)cc1" stands at 32.6 µM (active)

For reference, reported Potency for "O=C(Nc1ccccc1C(=O)O)c1ccccc1" stands at inactive

For reference, reported Potency for "Cc1cccc(C(=O)Nc2ccc(-c3nc4ccccc4s3)cc2Cl)c1" stands at inactive

For reference, reported Potency for "Cc1ccc2nc(-c3ccc(NC(=O)CN4CCN(C(=O)c5ccco5)CC4)cc3)sc2c1" stands at 14.6 µM (active)

For reference, reported Potency for "O=C(Nc1ccccc1C(=O)O)c1cccc(NC(=O)c2ccco2)c1" stands at 20.6 µM (active)

For reference, reported Potency for "O=C(Nc1ccccc1C(=O)O)c1ccc(NC(=O)C2CCCCC2)cc1" stands at 16.3 µM (active)

---

Molecular target: Luciferin 4-monooxygenase (Photinus pyralis)
Experiment: FLuc inhibitory activity for the follow-up compounds in a biochemical assay with 1mM D-luciferin
Details: purified FLuc, luminescence; series mostly up to 57.5 µM
Description: NCGC Assay Overview: Firefly (Photinus pyralis) luciferase is one of the most commonly used transcriptional reporters. It is considered one of the more dynamically responsive reporters - that is, responsive to changes in reporter transcription - as it requires no post-translational modifications and is enzymatically active directly after protein synthesis (Wood, 1998). […]
Inconclusive results are not listed. Active and inactive are the calls of the source. Calls follow the shape of the dose curve; as a rule, active = well fitted inhibition curve with a large enough effect; inconclusive = small, poorly fitted or top-dose-only effect; inactive = flat fitted curve, though single readings scatter.
attribute_measured: Potency

Field: example entries. Status: answers known.
| smiles_representation | assay_system | attribute_measured | reported_measurement |
| --- | --- | --- | --- |
| Cc1c(NC(=O)c2cc(-n3cnnc3)ccc2Cl)cccc1-c1nc2ccccc2s1 | Luciferin 4-monooxygenase (Photinus pyralis) | Potency | 0.919 µM (active) |
| Cc1ccc(C(=O)Nc2cccc(C(=O)O)c2)cc1 | Luciferin 4-monooxygenase (Photinus pyralis) | Potency | 4.11 µM (active) |
| Nc1ccc(-c2nc3ccc(C(=O)O)cc3s2)cc1 | Luciferin 4-monooxygenase (Photinus pyralis) | Potency | 1.16 µM (active) |
| CCOc1ccc2nc(NC(=O)c3ccccn3)sc2c1 | Luciferin 4-monooxygenase (Photinus pyralis) | Potency | 2.06 µM (active) |
| O=C(Nc1cccc(-c2nc3ccccc3s2)c1)c1cc(-n2cnnc2)ccc1Cl | Luciferin 4-monooxygenase (Photinus pyralis) | Potency | 8.19 µM (active) |
| Cc1cccc(NS(=O)(=O)c2cccc(C(=O)Nc3cccc(C(=O)O)c3)c2)c1 | Luciferin 4-monooxygenase (Photinus pyralis) | Potency | inactive |

For reference, reported Potency for "Nc1ccc(-c2nc3ccc(N)cc3s2)cc1" stands at 1.83 µM (active)

For reference, reported Potency for "CCOc1ccc2nc(NC(=O)Cc3cccs3)sc2c1" stands at 18.3 µM (active)

For reference, reported Potency for "O=C(Nc1ccccc1C(=O)O)c1cccc(NC(=O)c2ccccc2Cl)c1" stands at 36.6 µM (active)

For reference, reported Potency for "COc1ccc(NS(=O)(=O)c2cccc(C(=O)Nc3ccccc3C(=O)O)c2)cc1" stands at inactive

For reference, reported Potency for "Nc1cccc(-c2nc3ccc(N)cc3s2)c1" stands at 2.59 µM (active)

---

target: Luciferin 4-monooxygenase (Photinus pyralis) (UniProt P08659); test: FLuc inhibitory activity for the follow-up compounds in a biochemical assay with 1mM D-luciferin; details: purified FLuc, luminescence; series mostly up to 57.5 µM
Results filed as inconclusive are left out. Active and inactive are the calls of the source. The call rests on the fitted dose curve; in most records, active means well fitted inhibition curve with a large enough effect; inconclusive means small, poorly fitted or top-dose-only effect; inactive means flat fitted curve, though single readings scatter.
Tick one outcome: active, inactive

Before answering, review these 2 worked examples.
| compound | discrete_label |
| --- | --- |
| Cc1ccc2sc(-c3ccc(N)cc3)nc2c1 | active |
| O=C(Nc1ccccc1C(=O)Nc1ccccc1C(=O)O)c1ccccc1 | active |

Continue with the compound presented below.
Just curious, what result did "Nc1ccc(C(=O)Nc2ccccc2C(=O)O)cc1" get here?
active

---

Target: Luciferin 4-monooxygenase (Photinus pyralis) (UniProt P08659)
Test: FLuc inhibitory activity for the follow-up compounds in a biochemical assay with 1mM D-luciferin
Settings: purified FLuc, luminescence; series mostly up to 57.5 µM
Source text: NCGC Assay Overview: Firefly (Photinus pyralis) luciferase is one of the most commonly used transcriptional reporters. It is considered one of the more dynamically responsive reporters - that is, responsive to changes in reporter transcription - as it requires no post-translational modifications and is enzymatically active directly after protein synthesis (Wood, 1998). […]
Inconclusive results are not listed. Activity calls are given as the source filed them. The call rests on the fitted dose curve; in most records, active means well fitted inhibition curve with a large enough effect; inconclusive means small, poorly fitted or top-dose-only effect; inactive means flat fitted curve, though single readings scatter.
Tick one outcome: yes (1) for active, no (0) for inactive

Before answering, review these 10 worked examples.
| compound | discrete_label |
| --- | --- |
| Cc1ccc(C(=O)O/N=C(\N)c2ccccn2)cc1 | yes (1) |
| O=C(Nc1ccccc1C(=O)O)c1cc(S(=O)(=O)NCc2ccccc2)ccc1Cl | no (0) |
| COc1ccc(C(=O)Nc2ccccc2C(=O)Nc2ccccc2C(=O)O)cc1 | yes (1) |
| CC(C)(C)C(=O)Nc1ccc(-c2nc3ccccc3s2)cc1 | yes (1) |
| COc1ccc2nc(NC(=O)CCc3nc(-c4ccccc4F)no3)sc2c1 | no (0) |
| COc1ccc2nc(NC(=O)c3ccco3)sc2c1 | yes (1) |
| O=C(Nc1ccccc1C(=O)O)c1ccc(Cl)c(S(=O)(=O)N2CCOCC2)c1 | yes (1) |
| Cc1ccc(C(=O)Nc2cccc(C(=O)O)c2)cc1S(=O)(=O)N1CCCC1 | yes (1) |
| O=S(=O)(c1ccc(-c2nc3ccccc3s2)cc1)N1CCCC1 | no (0) |
| O=C(O)c1cccc(NC(=O)c2ccc(Cl)c(S(=O)(=O)N3CCCCCC3)c2)c1 | yes (1) |

Continue with the compound presented below.
Just curious, what result did COc1ccc2nc(NC(=O)c3ccc(S(=O)(=O)N4CCCC(C)C4)cc3)sc2c1 (stereo not drawn) get here?
no (0)
